Just for reference, the supplement of paper PMC8728848 is where these values come from.

Consider the following binders and their measured glycan array binding signal (z-score) readings.
Target: Neu5Ac(a2-3)Gal(b1-4)Glc
Experiment: glycan array binding signal (z-score within array); higher = stronger binding
Details: glycan notation: IUPAC condensed, linker removed
Many of the other results were omitted from the sample, so the strongest signals are more common in it than they were.
Please reply with the number alone, leaving off any unit.

# get_value(readout='glycan array binding signal (z-score)', item= MSMEG3662-2a (Mycobacterium smegmatis), A0QYH7_MYCS2 (protein) MGDTLTAGQKLERGGSLQSGNGAYTLTLQDDGNLVLYARDKAVWSTGTNGQDVVRAEVQTDGNFVLYTAEKPVWHTDTKGKKEVKLVLQDDRNLVLYAKDGPAWSSKTDTTEPPPPAPEPEKEAEVAPAAAEEAAPAPVAEPAPAEPAPAAPPPAPPAPRTYTVVSGDTLWAIAERFYGDGSKYQQIADASGIANPDLIHPGQVLTIP )
0.572

Now consider Cohesin-mDCIR (Macaca mulatta) (protein) GLDDLDAVRIKVDTVNAKPGDTVRIPVRFSGIPSKGIANCDFVYSYDPNVLEIIEIEPGDIIVDPNPDKSFDTAVYPDRKIIVFLFAEDSGTGAYAITKDGVFATIVAKVKEGAPNGLSVIKFVEVGGFANNDLVEQKTQFFDGGVNVGDTTEPATPTTPVTTPTTTDDLDAASFQKYSQLLEKMTTKDLVHTTLECVKKNMTTEETAWSCCPKNWKPFSSNCYFISTESASWQKSEKDCARMEAHLLVINTREEQDFIFQNLQEESAYFVGLSDPEGQRHWQWVDRTPYNESSTFWHPHEPSDPDERCVVLNFRKTPKRWGWNDVHCIVHQRSVCEMMKIHLHHHHHH and answer again.
-0.444
